The reported measurements were obtained from ChEMBL document CHEMBL1212769.

# methodNotes: AUC (0 to 24 hrs) in human at 75 mg/kg, po measured on day 1
# Assay type: ADME, organism-based
# Parameters: time < 24 hr, dose 75 mg/kg, route oral
# details: plasma
experimentalReadout: AUC(0-t) at 24 h (ng·h/mL)

COc1c(N2C[C@@H](C)C[C@H](N)C2)ccc2c(=O)c(C(=O)O)cn(C3CC3)c12 [NEMONOXACIN]; 3780

====

# methodNotes: Terminal half life in human at 250 […], po measured on day 10
# Assay type: ADME, organism-based
# Parameters: route oral
# details: in vivo, read-out: beta t1/2 (converted)
experimentalReadout: half-life (h)

COc1c(N2C[C@@H](C)C[C@H](N)C2)ccc2c(=O)c(C(=O)O)cn(C3CC3)c12; 17.6

====

# methodNotes: AUC (0 to 24 hrs)in human at 500 mg/kg, po measured on day 10
# Assay type: ADME, organism-based
# Parameters: time < 24 hr, dose 500 mg/kg, route oral
# details: plasma
experimentalReadout: AUC at 24 h (ng·h/mL)

COc1c(N2C[C@@H](C)C[C@H](N)C2)ccc2c(=O)c(C(=O)O)cn(C3CC3)c12; 38600

====

# methodNotes: AUC (0 to 24 hrs) in human at 250 mg/kg, po measured on day 10
# Format: ADME, organism-based
# Set-up: time < 24 hr, dose 250 mg/kg, route oral
# details: plasma
experimentalReadout: AUC at 24 h (ng·h/mL)

COc1c(N2C[C@@H](C)C[C@H](N)C2)ccc2c(=O)c(C(=O)O)cn(C3CC3)c12; 16100
